Origin of measurements: patent US20240018161A1

TARGET OR TEST SYSTEM: CFTR-mediated chloride transport in human intestinal epithelial enteroid cells (Homo sapiens)
Sequence (P13569 with tags, fused parts or gaps DEL508-508): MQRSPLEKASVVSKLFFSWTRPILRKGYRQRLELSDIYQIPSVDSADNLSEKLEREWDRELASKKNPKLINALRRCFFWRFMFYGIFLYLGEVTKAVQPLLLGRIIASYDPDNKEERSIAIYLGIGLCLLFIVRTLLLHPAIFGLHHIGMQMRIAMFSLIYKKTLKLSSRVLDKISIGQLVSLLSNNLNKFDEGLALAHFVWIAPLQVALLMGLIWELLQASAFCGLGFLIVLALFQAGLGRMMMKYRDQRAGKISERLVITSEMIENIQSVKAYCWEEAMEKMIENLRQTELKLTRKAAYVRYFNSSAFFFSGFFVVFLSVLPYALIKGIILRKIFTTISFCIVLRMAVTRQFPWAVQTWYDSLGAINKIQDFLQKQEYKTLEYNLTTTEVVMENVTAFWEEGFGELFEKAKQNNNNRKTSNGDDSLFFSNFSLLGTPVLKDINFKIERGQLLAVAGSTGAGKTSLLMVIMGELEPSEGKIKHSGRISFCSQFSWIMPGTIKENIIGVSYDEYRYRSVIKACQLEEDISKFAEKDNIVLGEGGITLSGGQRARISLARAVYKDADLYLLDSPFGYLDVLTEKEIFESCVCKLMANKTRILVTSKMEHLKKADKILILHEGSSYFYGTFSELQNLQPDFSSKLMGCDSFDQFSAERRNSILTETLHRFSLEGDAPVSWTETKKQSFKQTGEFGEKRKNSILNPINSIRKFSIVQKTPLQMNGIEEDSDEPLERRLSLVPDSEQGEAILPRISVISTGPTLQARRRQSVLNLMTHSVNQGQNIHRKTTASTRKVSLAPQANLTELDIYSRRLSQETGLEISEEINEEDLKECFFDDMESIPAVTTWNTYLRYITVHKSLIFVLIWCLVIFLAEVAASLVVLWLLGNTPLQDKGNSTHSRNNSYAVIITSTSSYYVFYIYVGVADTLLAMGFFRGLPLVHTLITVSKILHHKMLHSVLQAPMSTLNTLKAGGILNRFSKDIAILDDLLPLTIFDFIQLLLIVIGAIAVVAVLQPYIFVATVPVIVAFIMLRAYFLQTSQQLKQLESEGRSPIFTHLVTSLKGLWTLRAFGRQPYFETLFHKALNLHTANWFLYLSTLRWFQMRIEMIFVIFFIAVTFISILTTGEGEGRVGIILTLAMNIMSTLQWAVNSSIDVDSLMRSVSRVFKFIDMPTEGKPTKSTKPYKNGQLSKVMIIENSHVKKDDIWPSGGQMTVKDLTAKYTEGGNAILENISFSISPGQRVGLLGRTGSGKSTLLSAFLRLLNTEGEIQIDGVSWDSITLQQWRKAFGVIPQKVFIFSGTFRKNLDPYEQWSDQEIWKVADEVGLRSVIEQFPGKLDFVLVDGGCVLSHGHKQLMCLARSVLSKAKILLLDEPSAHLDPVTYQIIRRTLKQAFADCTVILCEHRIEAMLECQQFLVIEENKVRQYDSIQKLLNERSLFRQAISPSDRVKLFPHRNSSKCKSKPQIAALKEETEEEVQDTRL
PROTOCOL TEXT: Membrane potential dye, Enteroid Assay A
Type: cell-based
CONDITION INFO: Enteroid Assay A; read-out: Ent. A EC50
READOUT KIND: EC50

{"COMPOUND": "Cc1cccc(C)c1-c1cc2nc(n1)NS(=O)(=O)c1cccc(c1)C(=O)N1CCN(C3CC(C)(C)C3)C[C@H](C1)O2", "EC50": "< 1000 nM"}
{"COMPOUND": "Cc1cccc(C)c1-c1cc2nc(n1)NS(=O)(=O)c1cccc(c1)C(=O)N1C[C@@H](CN(C)C[C@H]1C(C)C)O2", "EC50": "< 1000 nM"}
{"COMPOUND": "Cc1cccc(C)c1-c1cc2nc(n1)NS(=O)(=O)c1cccc(c1)C(=O)N1C[C@@H](CN(C3CCC(F)(F)CC3)C[C@H]1C(C)C)O2", "EC50": "< 1000 nM"}
{"COMPOUND": "Cc1cccc(C)c1-c1cc2nc(n1)NS(=N)(=O)c1cccc(c1)C(=O)N1CCN(CCC(C)(C)C)C[C@H](C1)O2 (single isomer, unassigned)", "EC50": "< 1000 nM"}
{"COMPOUND": "CCCCN1CCN2C[C@@H](C1)Oc1cc(-c3c(C)cccc3C)nc(n1)NS(=O)(=O)c1cccc(c1)C2=O", "EC50": "< 1000 nM"}

Could you share which EC50 value was measured for Cc1cccc(C)c1-c1cc2nc(n1)NS(=O)(=O)c1cccc(c1)C(=O)N1C[C@@H](CN(CCC(C)(C)C)C[C@@H]1CC(C)C)O2 ?
< 1000 nM

Cc1cccc(C)c1-c1cc2nc(n1)NS(=O)(=O)c1cccc(c1)C(=O)N1C[C@@H](CN(C3CCC(F)(F)CC3)C[C@@H]1C(C)C)O2 , same question.
< 1000 nM

Subsequent entry: Cc1cccc(C)c1-c1cc2nc(n1)NS(=O)(=O)c1cccc(c1)C(=O)N1CCN(C3CCC(F)(F)CC3)CC(C1)O2 (stereo not drawn)
< 1000 nM

Quick one: Cc1cccc(C)c1-c1cc2nc(n1)NS(=O)(=O)c1cccc(c1)C(=O)N1CCN(C3CC4(COC4)C3)C[C@H](C1)O2
3000 to 30000 nM

Now the compound Cc1cccc(C)c1-c1cc2nc(n1)NS(=O)(=O)c1cccc(c1)C(=O)N1CCN(CCCCO)C[C@H](C1)O2
3000 to 30000 nM

How about this compound: Cc1cccc(C)c1-c1cc2nc(n1)NS(=O)(=O)c1cccc(c1)C(=O)N1CCN(CC3CCOC3)C[C@H](C1)O2 (stereo partly drawn)
1000 to 3000 nM

Also, Cc1cccc(C)c1-c1cc2nc(n1)NS(=O)(=O)c1cccc(c1)C(=O)N1CC(CC(C)(C)C1)O2 (stereo not drawn) please.
< 1000 nM

// repeat for Cc1cccc(C)c1-c1cc2nc(n1)NS(=O)(=O)c1cccc(c1)C(=O)N1C[C@@H](CN(C3CC4(CCCC4)C3)C[C@@H]1C(C)C)O2 and report
< 1000 nM

Follow-up item: Cc1cccc(C)c1-c1cc2nc(n1)NS(=O)(=O)c1cccc(c1)C(=O)N1CCN(C3CCC(F)(F)CC3)C[C@H](C1)O2
< 1000 nM

Now the compound Cc1cccc(C)c1-c1cc2nc(n1)NS(=O)(=O)c1cccc(c1)C(=O)N1CCN(Cc3ccccc3)CC(O2)C1CC(C)C (single isomer, unassigned) [Compound 89]
< 1000 nM

Then Cc1cccc(C)c1-c1cc2nc(n1)NS(=O)(=O)c1cccc(c1)C(=O)N1Cc3cc(C(C)(C)C)ccc3[C@@H](O2)[C@H]1CC(C)(C)C ?
< 1000 nM

Next: Cc1cccc(C)c1-c1cc2nc(n1)NS(=O)(=O)c1cccc(c1)C(=O)N1CCN(C(=O)OC(C)(C)C)[C@@H](CC(C)C)[C@@H](C1)O2
< 1000 nM

Same again, this time with Cc1cccc(C)c1-c1cc2nc(n1)NS(=O)(=O)c1cccc(c1)C(=O)N1CC(O2)C2CCCN(C)C2C1 (single isomer, unassigned)
3000 to 30000 nM

Proceed to Cc1cccc(C)c1-c1cc2nc(n1)NS(=O)(=O)c1cccc(c1)C(=O)N1Cc3cc(C(C)(C)C)ccc3C(O2)[C@H]1CC(C)(C)C (stereo in doubt)
< 1000 nM

Check Cc1cccc(C)c1-c1cc2nc(n1)NS(=O)(=O)c1cccc(c1)C(=O)N1C[C@@H](CN(C3CC4(CCCCC4)C3)C[C@@H]1C(C)C)O2 too.
< 1000 nM

Another: CCN1CCN2C[C@@H](C1)Oc1cc(-c3c(C)cccc3C)nc(n1)NS(=O)(=O)c1cccc(c1)C2=O
1000 to 3000 nM

For Cc1cccc(C)c1-c1cc2nc(n1)NS(=O)(=O)c1cccc(c1)C(=O)N1CCN(C3CCCC3)C[C@H](C1)O2 then?
< 1000 nM

What do you get for Cc1cccc(C)c1-c1cc2nc(n1)NS(=O)(=O)c1cccc(c1)C(=O)N1CCN(C3CCC3(C)C)C[C@H](C1)O2 (single isomer, unassigned) [Compound 9] ?
< 1000 nM

Thanks! And Cc1cccc(C)c1-c1cc2nc(n1)NS(=O)(=O)c1cccc(c1)C(=O)N1C[C@@H](CN(C3CC4(CCCCC4)C3)C[C@H]1C(C)C)O2 ?
< 1000 nM
